# measurement notes: Oral pharmacokinetics in rats (plasma, brain, CSF)
# Format: in vivo, Sprague Dawley rats
# assay context: Sprague Dawley; rat, oral gavage, 10 mg/kg, plasma
Each entry below carries its recorded AUC(0-t).

{"compound": "CC(C)(C)OC(=O)N1CCC2(CCCNC2=O)CC1 [AC]", "unit abbrev": "ng·h/mL", "AUC(0-t)": 1860}
{"compound": "O=C(O)C(F)(F)F.O=C1NCCCC12CCNCC2 [AA, 2,9-diazaspiro[5.5]undecan-1-one]", "unit abbrev": "ng·h/mL", "AUC(0-t)": 1020}
{"compound": "CC(C)C(=O)N1CCC2(CCCNC2=O)CC1 [Compound AD]", "unit abbrev": "ng·h/mL", "AUC(0-t)": 18400}

---

# measurement notes: IV pharmacokinetics in rats
# assay context: Sprague Dawley, in vivo, rat, 2 mg/kg, normal saline, read-out: Vss
metric name: Vd (L/kg)

{"molecule": "CC(C)(C)OC(=O)N1CCC2(CCCNC2=O)CC1", "metric name": "Vd", "numeric result": 0.31}
{"molecule": "CC(C)C(=O)N1CCC2(CCCNC2=O)CC1", "metric name": "Vd", "numeric result": 0.92}
{"molecule": "O=C(O)C(F)(F)F.O=C1NCCCC12CCNCC2 [AA, 2,9-diazaspiro[5.5]undecan-1-one]", "metric name": "Vd", "numeric result": 1.76}

---

Recorded AUC(0-t) values for a group of compounds are listed next.
# measurement notes: IV pharmacokinetics in rats
# assay context: Sprague Dawley, in vivo, rat, 2 mg/kg, normal saline
metric name: AUC(0-t) (ng·h/mL)

{"compound": "CC(C)(C)OC(=O)N1CCC2(CCCNC2=O)CC1", "unit abbrev": "ng·h/mL", "numeric result": 845}
{"compound": "O=C(O)C(F)(F)F.O=C1NCCCC12CCNCC2 [AA, 2,9-diazaspiro[5.5]undecan-1-one]", "unit abbrev": "ng·h/mL", "numeric result": 1160}
{"compound": "CC(C)C(=O)N1CCC2(CCCNC2=O)CC1", "unit abbrev": "ng·h/mL", "numeric result": 5280}

---

# measurement notes: IV pharmacokinetics in rats
# assay context: Sprague Dawley, in vivo, rat, 2 mg/kg, normal saline
This listing pairs molecules with measured half-life.

{"molecule": "CC(C)C(=O)N1CCC2(CCCNC2=O)CC1", "half-life [h]": 6.37}
{"molecule": "O=C(O)C(F)(F)F.O=C1NCCCC12CCNCC2 [AA, 2,9-diazaspiro[5.5]undecan-1-one]", "half-life [h]": 2}
{"molecule": "CC(C)(C)OC(=O)N1CCC2(CCCNC2=O)CC1", "half-life [h]": 0.12}

---

# measurement notes: Oral pharmacokinetics in rats (plasma, brain, CSF)
# Assay type: in vivo, Sprague Dawley rats
# assay context: Sprague Dawley, plasma; rat, oral gavage, 10 mg/kg
// bioavailability lookup, one value per entry

{"compound": "CC(C)C(=O)N1CCC2(CCCNC2=O)CC1", "unit abbrev": "%", "bioavailability": 70}
{"compound": "O=C(O)C(F)(F)F.O=C1NCCCC12CCNCC2 [AA, 2,9-diazaspiro[5.5]undecan-1-one]", "unit abbrev": "%", "bioavailability": 18}
{"compound": "CC(C)(C)OC(=O)N1CCC2(CCCNC2=O)CC1", "unit abbrev": "%", "bioavailability": 44}
